assay_method_text: NCI Yeast Anticancer Drug Screen. Data for the bub3 strain (AID 167)
reported_conditions: S. cerevisiae bub3 mutant strain, at 50.0 µM, hits give high values
This is part of a sample that, as a whole, favours compounds with a hit. Of some 79,000 tested, about 15% had one in any assay.
measurement_label: growth inhibition (%)

molecule=N#C/C(=C(/Cc1ccc(F)cc1)NP(=O)(c1ccccc1)c1ccccc1)c1ccc(F)cc1 units_text=% measurement=2.6
molecule=CCCCCC(=O)OCCCc1ccccc1 units_text=% measurement=19.4
molecule=CC(C)(c1ccccc1)[Si](c1ccccc1)(c1ccccc1)c1ccccc1 units_text=% measurement=-6.85
molecule="CC1(C)OC2C(=O)O[C@H](CO)C2O1 (stereo partly specified)" units_text=% measurement=7.3
molecule="O=S(=O)(CC(Br)c1ccccc1)c1ccccc1 (stereo unspecified)" units_text=% measurement=60.5
molecule=O=C(NCc1ccccc1)Nc1cccc2c(NC(=O)NCc3ccccc3)cccc12 units_text=% measurement=-27.5

---

assay_method_text: NCI Yeast Anticancer Drug Screen. Data for the bub3 strain (AID 167)
reported_conditions: S. cerevisiae bub3 mutant strain, at 50.0 µM, hits give high values
This is part of a sample that, as a whole, favours compounds with a hit. Of some 79,000 tested, about 15% had one in any assay.
measurement_label: growth inhibition (%)

compound=Cc1ccc([N+](=O)[O-])c(N)n1 measurement=3.8
compound=COc1cc2cc(OC)c3cc4c(cc3c2c(OC)c1OC)OCO4 measurement=6.6
compound=O=C1C=CC(=O)c2c1c1c(c3c2C2c4ccccc4C3c3ccccc32)C2c3ccccc3C1c1ccccc12 measurement=-5.75
compound=CC(C)(C)CC(C)(C)c1ccc(OCCOc2ccc(C(=O)NCCNC(=O)c3ccc4ccccc4c3O)cc2N)cc1 measurement=-7.1
compound=O=c1[nH]c(Nc2ccc(Cl)c(C(F)(F)F)c2)nc2nc[nH]c12 measurement=8.45
compound="CC1=C(C(=O)OCCO[N+](=O)[O-])C(c2ccccc2C(F)(F)F)C(C(=O)OC(C)C)=C(C)N1 (centres undefined)" measurement=30
compound=C[N+](C)(C)CC(=O)c1ccc[nH]1 measurement=1.4
compound=O=C1Nc2ccccc2Nc2nc3cccccc-3c21 measurement=-6.6
compound="CCCC(=O)OCCCCC1CCCO1 (centres undefined)" measurement=5.45
compound=C/C=C(/C)c1ccccc1 measurement=4.55
compound=O=C(O)c1ccc2sc3ccccc3c(=O)c2c1 measurement=21.7
compound=C=CCc1ccc(OC(=O)CC)c(OC)c1 measurement=-10.8
compound=CCCCCC(=O)Cc1cc(O)cc2c1C(=O)Oc1cc(O)c(C(=O)O)c(CCCCC)c1O2 measurement=16.4
compound="CC1CCC2(CC1)NN=c1s/c(=C\\c3ccc(O)cc3)c(=O)n1N2 (centres undefined)" measurement=-21.2
compound="O=C1CC2COc3ccccc3C2=NN1c1ccccc1 (centres undefined)" measurement=-4.15
compound="O=C(OC1COC(n2c(=O)oc3cc(Br)c(Cl)cc32)C(OC(=O)c2ccccc2)C1OC(=O)c1ccccc1)c1ccccc1 (centres undefined)" measurement=4.85
compound="CCCCOC(=O)C(N)Cc1ccccc1 (centres undefined)" measurement=23.6
compound="Cc1[nH]c2ccccc2c1C(Cc1ccccc1NC(=O)CCC(=O)O)c1c[nH]c2ccccc12 (centres undefined)" measurement=-0.9
compound="CC(O)C1OC(O)C2OC(C)(C)OC12 (centres undefined)" measurement=14.6
compound=CC(=O)n1c(=O)c2cc3c(=O)n(-c4cccc(C#N)c4)c(=O)c3cc2c1=O measurement=4.8
compound=CCCCCCC(N)(CCCCCC)C(=O)Nn1c(C)ccc1C measurement=4.25
compound="CCOC(=O)C(N=Nc1ccc(C)cc1Br)C(C)=O (centres undefined)" measurement=22.4
compound=CC(=O)CCCCCCCCCCCCCC(C)=O measurement=6.25
compound=O=c1c2ccccc2sc2nc(CCl)nn12 measurement=2.05
